Molecular target: Alpha-galactosidase A (Homo sapiens, UniProt P06280)
Sequence (P06280 whole entry): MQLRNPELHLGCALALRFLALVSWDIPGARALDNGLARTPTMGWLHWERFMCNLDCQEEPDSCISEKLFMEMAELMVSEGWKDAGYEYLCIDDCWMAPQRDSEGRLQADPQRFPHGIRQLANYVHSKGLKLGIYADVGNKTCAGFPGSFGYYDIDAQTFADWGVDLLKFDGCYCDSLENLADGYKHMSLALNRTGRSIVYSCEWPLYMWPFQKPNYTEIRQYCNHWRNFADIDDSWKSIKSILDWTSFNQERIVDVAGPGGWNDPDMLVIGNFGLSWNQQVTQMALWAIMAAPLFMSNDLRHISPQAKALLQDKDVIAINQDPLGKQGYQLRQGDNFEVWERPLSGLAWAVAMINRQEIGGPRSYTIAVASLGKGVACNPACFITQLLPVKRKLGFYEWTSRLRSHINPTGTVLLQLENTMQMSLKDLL
Assay: α-Gal A Assay
Settings: pH 7
Recorded IC50 values for a group of compounds are listed next.
# number only, unit nM dropped from output

As a guide, the following entries are already answered.
[[record]]
compound = "OC[C@@H]1[C@H](O)[C@H](O)[C@@H](O)CN1C(=S)Nc1cccc2ccccc12"
recorded_result = 370

[[record]]
compound = "OC[C@@H]1[C@H](O)[C@H](O)[C@@H](O)CN1C(=S)Nc1ccc(F)cc1"
recorded_result = 43

[[record]]
compound = "COc1ccc(NC(=S)N2C[C@H](O)[C@@H](O)[C@@H](O)[C@H]2CO)cc1"
recorded_result = 16

[[record]]
compound = "OC[C@@H]1[C@H](O)[C@H](O)[C@@H](O)CN1C(=S)NCc1ccccc1"
recorded_result = 4410

[[record]]
compound = "CSc1ccc(NC(=S)N2C[C@H](O)[C@@H](O)[C@@H](O)[C@H]2CO)cc1"
recorded_result = 1.4


Recorded IC50 of O[C@@H]1[C@@H](O)CN2/C(=N\c3ccc(F)cc3)SCC2[C@@H]1O (stereo partly specified) , please.
2180

###

target: Alpha-galactosidase A (Homo sapiens); assay: α-Gal A Assay; details: pH 5
Recorded IC50 values for a group of compounds are listed next.
# number only, unit nM dropped from output

As a guide, the following entries are already answered.
[[record]]
compound = "CSc1ccc(NC(=S)N2C[C@H](O)[C@@H](O)[C@@H](O)[C@H]2CO)cc1"
measure = "IC50"
recorded_result = 8.3

[[record]]
compound = "OC[C@@H]1[C@H](O)[C@H](O)[C@@H](O)CN1C(=S)NCc1ccccc1"
measure = "IC50"
recorded_result = 20300

[[record]]
compound = "OC[C@@H]1[C@H](O)[C@H](O)[C@@H](O)CN1C(=S)Nc1ccc(F)cc1"
measure = "IC50"
recorded_result = 340

[[record]]
compound = "COc1ccc(NC(=S)N2C[C@H](O)[C@@H](O)[C@@H](O)[C@H]2CO)cc1"
measure = "IC50"
recorded_result = 74

[[record]]
compound = "OC[C@@H]1[C@H](O)[C@H](O)[C@@H](O)CN1C(=S)Nc1cccc2ccccc12"
measure = "IC50"
recorded_result = 1600


Recorded IC50 of O[C@@H]1[C@@H](O)CN2/C(=N\c3ccc(F)cc3)SCC2[C@@H]1O (stereo partly specified) , please.
9670
